assay: cytotoxicity in PAX8-dependent RMG-1 cells, dose response, cell-based, cherry-pick (AID 687029); conditions: RMG-1 viability, CellTiterGlo ATP luminescence, 96 h; series mostly up to 35 µM;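 also: cells exposed to compound for 96 hours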
Results with a measured potency or affinity are listed apart. Calls of active or inactive are those of the source.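 The calls were made as follows: active = signal drop whose fitted half-maximal concentration is at most twice the top valid dose, in every test run; inconclusive = mixed calls across runs, poor fit, or flat 30 to 70% inhibition; inactive = wrong direction, flat within 30%, or potency beyond limit.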
measure_name: activity change, negative = inhibition

Worked examples, 8 molecules total:
What the record says about COc1cccc(S(=O)(=O)N2C[C@@H]3N[C@H](C2)C3c2ccc(/C=C/c3ccccc3)cc2)c1 (stereo partly specified) : activity change, negative = inhibition is inactive

// field: activity change, negative = inhibition; key: C[C@@H]1CN([C@@H](C)CO)C(=O)c2cc(NC(=O)Nc3ccc(C(F)(F)F)cc3)ccc2O[C@@H](C)CCCCO[C@H]1CN(C)C(=O)c1ccccc1 ; value = inactive

So, C[C@H]1CCCCO[C@H](CN(C)Cc2ccc(C(F)(F)F)cc2)[C@@H](C)CN([C@@H](C)CO)C(=O)c2cc(NS(=O)(=O)c3ccc(F)cc3)ccc2O1 ? Its activity change, negative = inhibition was inactive

Note to self: activity change, negative = inhibition recorded for Cc1cccc(C)c1NS(=O)(=O)c1ccc(-c2cnc(C3CC3)o2)cc1 was inactive

CCOC(=O)c1c2c(n(Cc3ccccc3)c1C)C(=O)C(=O)c1ccccc1-2 has a reported activity change, negative = inhibition of inactive

The reported value for CC(=NNC(=S)N1CCC1)c1ccccn1 in terms of activity change, negative = inhibition is inactive

Record C[C@H](CO)N1C[C@H](C)[C@@H](CN(C)Cc2ccc(C(F)(F)F)cc2)OCCCC[C@H](C)Oc2ccc(NC(=O)Nc3ccc(F)cc3)cc2C1=O . Reported activity change, negative = inhibition: inactive

The value of activity change, negative = inhibition measured for the molecule CCCCCCCn1c2c(c(=N)c3c1CCC3)CCCC2 turned out to be inactive

Next:
Sure, the documented activity change, negative = inhibition for CC1CCCC(NC(=O)COC(=O)c2ccccc2Sc2ccccc2C#N)C1C (stereo unspecified) is inactive

The reported value for C[C@H](CO)N1C[C@H](C)[C@H](CN(C)S(=O)(=O)c2ccc(Cl)cc2)Oc2c(NC(=O)Nc3ccc(F)cc3)cccc2C1=O in terms of activity change, negative = inhibition is inactive

Just so you know, measured activity change, negative = inhibition for Oc1ccc(C[C@H]2CNC(=S)N2CC2CCCN2C[C@H](Cc2ccc(O)cc2)N2C[C@H](Cc3ccc(O)cc3)N(CC3CCCCCC3)C2=S)cc1 (stereo partly specified) came out at inactive

Documented activity change, negative = inhibition of C[C@H](CO)N1C[C@H](C)[C@H](CN(C)S(=O)(=O)c2cccs2)OCCCC[C@H](C)Oc2ccc(NC(=O)NC3CCCCC3)cc2C1=O : inactive

meta.source: PubChem BioAssay
